The measured values listed here are drawn from paper PMC3516615.

- experimental-target: T1, EphA2 SAM domain Y960N (human, UniProt P29317 897-976, Y960N)
- T1 sequence (looked up): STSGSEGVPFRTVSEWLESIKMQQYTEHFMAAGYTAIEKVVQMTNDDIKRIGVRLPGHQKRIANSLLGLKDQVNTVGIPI
- assay-remarks: ITC
measured-parameter: Kd (µM)
Numbers only, in µM.

Task item: Please give the measured Kd for this binder: SHIP2 SAM domain (wild type) (domain or fragment, human, UniProt O15357 1192-1258, looked up) RASGLGEAGMSAWLRAIGLERYEEGLVHNGWDDLEFLSDITEEDLEEAGVQDPAHKRLLLDTLQLSK
Reply: 3.1
